tested on: PPARg:RXRa 30nM:10nM, anti-RXR (NR concentration 30 nM, RXRa partner concentration 10 nM); assay: PBM binding z-score (relative to random genomic background probes); higher = stronger binding; sequences stand for … in GC…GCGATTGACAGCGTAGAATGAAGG
RESULT TYPE: PBM binding z-score

* AGATTGAGGTTATACGTAGATCAGGGAAGAAAGT | 0.644

Task: Fill in reported PBM binding z-score for this entry: TGTCAAAGTTCAAAGGTAAGGTAAGTATCCACAC
Result: 5.24

Task: Give the value of PBM binding z-score reported for the following: AGAATGAGGTTAATATCAGGGAAACAGAATACAT
Result: 0.981

Task: Assign PBM binding z-score to the following record: CGTCCAATGTCAGCAGGTCAGTGAAAGCGACGTG
Result: -0.882

Task: Assign PBM binding z-score to the following record: ATGCCAAGGTGATCGTGAGGTCGTTGATACTAAC
Result: -0.303

Task: Please report the measured PBM binding z-score for TCAGACAGGTGACGGTAACTCAGGTACGCAGTCG
Result: 3.16

Task: Let me know recorded PBM binding z-score for ATATGTAGGTTATCGGGTCATTTAGTTTGCGCAT , thanks.
Result: 3.69

Task: Give PBM binding z-score for TTACCAAGGTGAAAGGTCGTAGATGCACGCCTTG
Result: 7.58

Task: Give the measured PBM binding z-score for CCTAGCAGGACAGGGTCACTCAAGCATTTCGCTT
Result: -0.413

Task: Identify PBM binding z-score associated with the sequence GCATATAGGTAATACAAGCTGAAAGTCCGATTGT
Result: 0.14

###

tested on: FXR:RXRa (NR concentration 270 nM, RXRa partner concentration 90 nM); test: PBM binding z-score (relative to random genomic background probes); higher = stronger binding; sequences stand for … in GC…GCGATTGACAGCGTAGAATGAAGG
RESULT TYPE: PBM binding z-score

* ATATGTAGGATAAGGGTCATTCAGGTTGGTTCGC | 3.71
* TCTAGTTGGTCACGTAGGTCACACACGACGGGTA | 2.06
* CCGACTGGAGCATAAGGTTACCATAAGCCAGCCC | 0.0844

Task: Fill in reported PBM binding z-score for this entry: CAAACTAGGTCAACGGTCAAAGTCGAGCCAACCA
Result: 5.58

Task: Read off the recorded PBM binding z-score for AGTCATAGTTCAGGACGAGGTAACGTAAAGCACG
Result: 1.09

Task: Entry GGAACGAGGGCATTCGAGTTGATAACATGGCGAT needs its PBM binding z-score filled in; supply it.
Result: 1.09

Task: Provide PBM binding z-score value for the following sequence: GCATATAGGTTATACAAGGTGAAAGTCCGATTGT
Result: 2.85

Task: Identify the reported PBM binding z-score for the following entry. GCAAGCAGGCCATTTGGGTCACTCAATGACGGGC
Result: 0.00635

Task: Kindly indicate its recorded PBM binding z-score. Item: TCATATAGGTAAACAGCTGAAAGTCCGTAAGTTA
Result: 1.09

Task: Report measured PBM binding z-score; entry is CGAACTAGGTCACGAAAGGTCAAAGTCGAATGAC
Result: 7.73

Task: Consider the sequence CGTCAAAGTTCAACTTAGGTAACGTAAAGCACGC and give its recorded PBM binding z-score.
Result: 7.46

Task: For the sequence ATCCCTAGGTAAAAGTTCAGTGAATCCCGAGGAT , give its measured PBM binding z-score value.
Result: 0.811

Task: Fill in PBM binding z-score for record CCTTACGGGTCACTGACAGATTATAGCATTTGGA
Result: 5.42

Task: Give the reported value of PBM binding z-score for this record: ATATCTAGGTTACATCCGGGTCATTCAGGCTATG
Result: 2.52

Task: Given the sequence TCTATTAGTTGAAAGGCAACCGACGAGTCCGTTT , write its reported PBM binding z-score.
Result: 0.518

Task: Item TCTAGTTGGTCACGGAGATCACACACGACGGGTA : provide PBM binding z-score
Result: 0.323

Task: Quick one: give measured PBM binding z-score for GCGACTGGGGCAAAGCAGGTTTCCATAAGGTTGG
Result: -0.319

Task: Output PBM binding z-score of TCATATAGGTAATACAGGTGAAAGACGGCATCTA
Result: 1.16

Task: Determine from records and report PBM binding z-score for CCTACTGGGCCCCGAAAGGTCATTGATTCAGTGA
Result: 3.17

Task: For the sequence ACTATGAGTTGACTTAGGGCAACCGATACGACGC , give its reported PBM binding z-score.
Result: 0.53

###

tested on: PPARg:RXRa IVT, anti-PPARg (NR concentration 270 nM, RXRa partner concentration 90 nM); experiment: PBM binding z-score (relative to random genomic background probes); higher = stronger binding; sequences stand for … in GC…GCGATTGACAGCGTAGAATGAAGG
Outcome label depends on PBM binding z-score relative to 0.7: at/above gives satisfied, below gives not satisfied.

Some solved entries appear below for comparison.
- TCTCGGAGGACACGAAAGGTCAGGGCTCGACATC: satisfied
- CGAACGAGGGCATGAGTTGATAGTAAATGCCGAT: satisfied
- CCTACTGGGGCATAAGGTTACCATAAGCCAGCCC: satisfied
- CCGAGTAGCTTATGGGGCATTCAGGCAACGGTGA: not satisfied
- CCTACTGGGCCCTCAGGTCATTGATATCAACGTT: satisfied
- GCTATTAGTTGAAAGGGCAAACGAATGATTCTCG: satisfied
- TCTCGGAGGACACGAAGGTCCGAGCTTTCCAGAG: not satisfied
- ACAGACAGATGAGTGAAGGTAACTCAGCTGGACG: not satisfied

Task: Hi team, for AGAATGAGGTTATCAAAGATCAGGGAAACGCTTG , is the recorded PBM binding z-score at or above 0.7?
Result: satisfied

Task: Quick check, PBM binding z-score >= 0.7? CCTACTGAGCCATCAGGTCATTGATATCAACGTT
Result: satisfied

Task: Hi team, for TCTCGGAGGACACGAAAGGTTAGAGCTCGACATC , is the recorded PBM binding z-score at or above 0.7?
Result: not satisfied

Task: Given the entry CCTAGTTGGTCAAGGGCACACACGCTATAGGTAC , answer whether its PBM binding z-score meets or surpasses 0.7.
Result: satisfied

Task: Test whether the sequence CCTCGGAGGAGAGAAGGTCAGAGCTGTCCGCTTT records PBM binding z-score of 0.7 or higher.
Result: not satisfied

###

tested on: PPARa:RXRa (NR concentration 270 nM, RXRa partner concentration 90 nM); experiment: PBM binding z-score (relative to random genomic background probes); higher = stronger binding; sequences stand for … in GC…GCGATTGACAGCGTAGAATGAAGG
RESULT TYPE: PBM binding z-score

- TCTGCTTGGTCAGTTGGTCAGCTAACGAGCTGCC: -0.161
- GCAGACAGGTGAAACGCAGGTTACTCAGGGTGGC: 1.06
- TCTTTTAGATCAGCAGGTTAAGAAAGCTGGCCAA: 0.889
- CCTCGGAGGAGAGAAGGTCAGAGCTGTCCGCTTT: 1.62
- AGAATGAGGTTACCAAAGATCAGGGGAACGCTTG: 3.44

Task: Supply recorded PBM binding z-score for GCGACTGGGGCAAAGCAGGTGACCATAAGGTTGG here.
Result: 1.09

Task: Fill in PBM binding z-score for record CCTACTTGGTCAAGGTCACACACGCTATAGGTAC
Result: 4.33

###

test system: PPARg DBDmut:RXRa IVT, anti-PPARg (DBD mutation: PPARg1 K132A/R137A, NR concentration 270 nM, RXRa partner concentration 90 nM); test: PBM binding z-score (relative to random genomic background probes); higher = stronger binding; sequences stand for … in GC…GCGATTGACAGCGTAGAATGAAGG
PBM binding z-score for assorted sequences
Output spec: single numeric token, no unit.

Please review the entries below; each comes with its answer.
* ATCGAAAGGTCGACGAGGGGAGTATACACCGTTT | 1.34
* CCTACTGAGCCAAGGTCATTGATCAGTCAAAGCA | -0.559
* ACTGGGAGGACAAAGGTCAGAGCTACGCCAGTGA | 0.328
* GCTCGGAGGACAAGGGCAGAGCTTTGTCCGTAGA | -1.1
* CAAACTAGGGCAAGAGGTCAAAGTCCGCTTCCCG | 1.69
* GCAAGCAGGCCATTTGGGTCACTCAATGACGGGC | -0.319
* CAAATTAGGTCAAAGGTCAAAGTCGAGCCAACCA | 4.97
* CTACCAAGGTGAACAAGGTCATTGATTACTATTC | 0.536

Task: For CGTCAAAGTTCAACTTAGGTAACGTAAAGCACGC , write its PBM binding z-score.
Result: 0.537

Task: Give the reported PBM binding z-score for this sequence. CAGCCTAGGTCAGGGCCTGTATAGGAGGAACGTT
Result: -0.895

Task: Specify measured PBM binding z-score for TGACCAAGGTGAAAGGTCGTTGATGCACGCCTTG .
Result: 0.518

Task: Quick one: give measured PBM binding z-score for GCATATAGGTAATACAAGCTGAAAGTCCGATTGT
Result: 0.865
